Where do the numbers come from? From patent US10662235B2.

assay: Thermal stability by differential scanning calorimetry; type: physicochemical; settings: cysteine-NEM conjugates, DSC 25-100° C., 1° C. per minute
attributeMeasured: First Scan Tm

{"columns": ["molecule", "result"],
 "data": [
  ["S70C (protein, EGFR binding FN3 domain; EGFR-binding FN3 domain) chain 1: MLPAPKNLVVSEVTEDSARLSWDDPWAFYESFLIQYQESEKVGEAIVLTVPGSERSYDLTGLKPGTEYTVCIYGVHNVYKDTNMRGLPLSAIFTT chain 2: LPAPKNLVVSEVTEDSARLSWDDPWAFYESFLIQYQESEKVGEAIVLTVPGSERSYDLTGLKPGTEYTVCIYGVHNVYKDTNMRGLPLSAIFTT", "73 °C"],
  ["T93C (protein, EGFR binding FN3 domain; EGFR-binding FN3 domain) chain 1: MLPAPKNLVVSEVTEDSARLSWDDPWAFYESFLIQYQESEKVGEAIVLTVPGSERSYDLTGLKPGTEYTVSIYGVHNVYKDTNMRGLPLSAIFCT chain 2: LPAPKNLVVSEVTEDSARLSWDDPWAFYESFLIQYQESEKVGEAIVLTVPGSERSYDLTGLKPGTEYTVSIYGVHNVYKDTNMRGLPLSAIFCT", "69 °C"],
  ["V41C (protein, EGFR binding FN3 domain; EGFR-binding FN3 domain) chain 1: MLPAPKNLVVSEVTEDSARLSWDDPWAFYESFLIQYQESEKCGEAIVLTVPGSERSYDLTGLKPGTEYTVSIYGVHNVYKDTNMRGLPLSAIFTT chain 2: LPAPKNLVVSEVTEDSARLSWDDPWAFYESFLIQYQESEKCGEAIVLTVPGSERSYDLTGLKPGTEYTVSIYGVHNVYKDTNMRGLPLSAIFTT", "71 °C"]
]}
